target-or-test-system: anti-desmoglein 3 scFv antibody binding to human desmoglein 3 (DSG3)
assay-method-text: inhibitors of anti-DSG3 scFv binding to DSG3, dose response, biochemical, DSG3-coupled beads, scFv-GFP, flow cytometry, Cherry Pick 1 (AID 602251)
condition-context: at 66.1 µM (top of the series)
Calls of active or inactive are those of the source.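 Rule for the calls: active = fitted concentration giving half of the maximal binding block below 66 µM; inactive = the rest.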
experimental-readout: binding response, lower = inhibition

Q: Consider the compound shown here: `Cc1ccc2oc(-c3ccc(NC(=O)CC(C)C)cc3)nc2c1` What is its recorded binding response, lower = inhibition?
Result: inactive

Q: Consider the compound shown here: `CSc1ccccc1OCc1cc(C(=O)NCCC2=CCCCC2)no1` What is its recorded binding response, lower = inhibition?
Result: inactive

Q: Consider the compound shown here: `CCc1nnc(NC(=O)CSc2ncnc3c2oc2ccccc23)s1` What is its recorded binding response, lower = inhibition?
Result: inactive

Q: Consider the compound shown here: `COC(=O)c1sc(NC(=O)c2cc(-c3ccccc3)nc3ccccc23)c(C#N)c1C` What is its recorded binding response, lower = inhibition?
Result: inactive

Q: Consider the compound shown here: CN(C(=O)CSc1nc2cc([N+](=O)[O-])ccc2n1-c1ccc(F)cc1)C1CCS(=O)(=O)C1 (stereo not given) What is its recorded binding response, lower = inhibition?
Result: inactive

Continuing:
Q: Consider the compound shown here: `Cc1ccc(NC(=O)c2sc(N)nc2-c2ccc([N+](=O)[O-])cc2)cc1C` What is its recorded binding response, lower = inhibition?
Result: inactive

Q: Consider the compound shown here: `CCOc1ccc(S(=O)(=O)N2CCN(C(=O)c3ccccc3Cc3ccccc3)CC2)cc1` What is its recorded binding response, lower = inhibition?
Result: inactive

Q: Consider the compound shown here: `COc1ccc(O)c(/C=N/n2c(-c3ccco3)csc2=Nc2cccnc2)c1` What is its recorded binding response, lower = inhibition?
Result: inactive

Q: Consider the compound shown here: `CCOC(=O)N1CCC(NC(=O)c2cc3c(-c4ccccc4F)nn(C)c3s2)CC1` What is its recorded binding response, lower = inhibition?
Result: inactive

Q: Consider the compound shown here: `Cc1cccc(NC(=O)Cn2nnc(C(=O)NCc3cccs3)c2N)c1C` What is its recorded binding response, lower = inhibition?
Result: inactive

Sourced from PubChem BioAssay AID602251
